Data provenance is ChEMBL document CHEMBL1201862.

system: SK-OV-3; assay: NCI tumour cell line growth inhibition, 48 h
Activity calls are given as the source filed them. Rule as the data show it: active = GI50 up to about 1.1 µM and inactive = higher.
Respond using exactly one of the listed classes: active, inactive

# example entries with known answers
Record request — test call for `Nc1nc(NCCCO)cc(=O)[nH]1`
inactive

Given `Cc1cc(-c2nc3ccccc3s2)ccc1N` , state the outcome it received in this test.
inactive

Recorded call for `Oc1cccnc1CN1CCCCC1` ?
inactive

Each molecule tested received a call. Report the one for `NC(=O)C/C=C/CC(N)=O` .
inactive

Per the assay record, what outcome was assigned to `CN(Cc1cc(Cl)c(Cl)cc1NC(=O)CN)[C@H]1CCCC[C@@H]1N1CCCC1` ?
inactive

Recorded test call requested for `O=C(CNc1cccc([N+](=O)[O-])c1)Nn1c(-c2ccccc2)nc2ccccc2c1=O`
active

Recorded call for `CCOC(=O)Cn1nnc2ccc(Nc3nc4ccccc4nc3C(=O)OCC)cc21` ?
inactive

I'd appreciate the recorded outcome for `Cc1nc2c(N3CCCC3)nc(N3CCNCC3)nc2nc1NCc1ccccc1` from this test.
inactive

***
Dear all, I need the recorded test outcome for `CN(C)c1ccc(/C=C(\NC(=O)c2ccccc2)C(=O)NCC(=O)O)cc1` , thank you.
inactive

// param item: `Cc1cccc2c(=O)c3cccc([C@@H](C)C(=O)O)c3oc12` ; yields the recorded call
inactive

Recorded test call requested for `CC(C)N(c1cc2c(cc1F)c(=O)c(C(=O)O)cn2-c1ccc(N2CCN(C)CC2)cn1)C(C)C`
inactive

Please share the test call associated with `O=[N+]([O-])/C(Cl)=C(/C(Cl)=C(Cl)Cl)N1CCCCC1` .
inactive

Answer briefly: the call reported for CCc1cc2c(c3c1CCCC3=O)CC1(Cc3ccc(C(=O)OC)cc3C1)C2 (configuration not stated) in this assay.
inactive

Please state the recorded outcome for this molecule: `COc1ccc(/C(=N/N=c2[nH]c3ccccc3[nH]2)C(=O)O)cc1`
inactive

Test call for this molecule, please: `Cc1ccc2cccc(-c3cccc4ccccc34)c2n1`
inactive

Can you look up the reported call for CCOC(=O)C(NC(=O)CC)(Nc1ccccc1OC)C(F)(F)F (configuration not stated) for me?
inactive

---

tested on: HT-29; assay: NCI tumour cell line growth inhibition, 48 h
The source made the active and inactive calls. Cut-off read from the data, not from the text of the source: active = GI50 up to about 1.1 µM and inactive = higher.
MEASURE: GI50

Example molecules with recorded GI50:
// returns reported GI50 for input CCCC(=O)Nc1ncnc2c1ncn2C1OC2COP(=O)(O)OC2C1OC(=O)CCC (stereo not drawn)
> 100 µM (inactive)

What value of GI50 has been reported for the following molecule? `COC(=O)c1c(O)ccc2c1c1c(n2Cc2ccc(Cl)cc2Cl)C(=O)c2ccccc2C1=O`
17.6 µM (inactive)

I would be grateful if you could share the reported GI50 for `COc1ccc(-c2csc(-n3c(-c4ccccc4)nc4c(Br)cc(Br)cc4c3=O)n2)cc1` .
26.7 µM (inactive)

# query: GI50 of entry `CCOC(=O)c1ccc(/N=C2\Sc3nc4ccccc4n3\C2=N\c2ccc(C(=O)OCC)cc2)cc1`
19.6 µM (inactive)

Dear colleague, I am looking for the recorded GI50 of the following molecule: CN(CCO)c1nc(=O)c2c(n1C1OC(CO)C(O)C(O)C1O)CCCC2 (stereo not drawn)
> 100 µM (inactive)

New cases:
Returns the measured GI50 for the input molecule. Input: CC(C)C(C)C(C)(C)P(C)(C)=O (stereo not drawn)
> 100 µM (inactive)

Which GI50 value belongs to `Cc1ccc(NCCN(C)C)c2c(=O)c3cc(O)ccc3oc12` ?
11.2 µM (inactive)

Please report the recorded GI50 for `CCN(CC)CCOC(c1ccccc1)c1ccccc1.CCOC(=O)Nc1ccc(S(=O)(=O)NCCCl)cc1.CCOC(=O)Nc1ccc(S(=O)(=O)NCCCl)cc1.Nc1ccc(C(=O)O)c(O)c1` .
> 100 µM (inactive)
